assay.details: soluble fraction after stress (log2 fold change); higher = more stays soluble; pooled small domains, quantitative proteomics
test.conditions: stress: 50 degC
parameter: soluble fraction (log2)

**Q:** Returns the measured soluble fraction (log2) for the input sequence. Input: `HMIRQGTKQALLIEMLQRPEGASITEIVEATSWQAHTARGAISGALKKKLGLPITSEKHPERGTVYKL`
**A:** -0.685

**Q:** Please give the measured soluble fraction (log2) for this sequence: `HMENVMLRNFAIQATEAGVIKLLEDQRTFVWGSNNKKFMTVPFDEHPYSAMAAFFKTDEGLEIYKSIEKKF`
**A:** -1.71

**Q:** Name the reported soluble fraction (log2) value associated with the sequence `HMSTSERLKQVMEVKGFNLKTFSEQADIPYRTLQNYILTNREPSAESLAKLHSQLGINLNWLMSGKGEMF`
**A:** -0.283

**Q:** Consider the sequence `HMSQTDTDAKDARQKILALLSDGEWHQKTELLKIDAPKEAVSNAIRYLVLEELISIDHAKVRA` and give its measured soluble fraction (log2).
**A:** -0.489

**Q:** Given the entry `HMRMLSEGAQRMLRGLAVLEEASADRLLELHQGDYPGFVRSLFALESAGLFQRNGSGTWIRR` , report its measured soluble fraction (log2).
**A:** -0.819

**Q:** # input sequence: `HMGTYYTEIIAQLKKEIANGTWKLGERLPGELALAKQFNVSRSSIREALKALAYAGIVESKPGRGTFLLHV` ; wanted: its soluble fraction (log2)
**A:** -0.875

**Q:** Value lookup for soluble fraction (log2); key = `HMASVLTGMLGRVTGELAPKGIVMVGNETWTAVSEDDSVIRIGEPVEVRSVEGLILTVFRRID`
**A:** -2.53

**Q:** Which soluble fraction (log2) value belongs to `HMDGLIRLNKLLATLGVESRRHAEEMIIAGRITVDGVTATEKGQKVRRGAVIKVDGVEVGPPP` ?
**A:** -0.121

* * *

assay.details: soluble fraction after stress (log2 fold change); higher = more stays soluble; pooled small domains, quantitative proteomics
test.conditions: stress: 50 degC
Please mark criterion met if the recorded soluble fraction (log2) is equal to or greater than -0.2, and criterion not met if it falls below.

**Q:** Determine whether this sequence has soluble fraction (log2) no lower than -0.2: `HMTGGLTQEQISQLRMLTPQQIEQLRQLQPQQVEMLRQLRPEQVMLLTQLEPQQIMAFMRLEPSVIMQL`
**A:** criterion not met

**Q:** Tell me whether soluble fraction (log2) is at least -0.2 here: `HMNVQGFVFDLAEPLDKVPSIEGFPLKLEDPLTLVAAVNKDRSINALFAELSKLNIKIKSMRNE`
**A:** criterion met

**Q:** Hello, I need to know if `HMSRMLTVKQREVFDLAMREGYWETPRRITLTMLASLLSVSKSTLSVQLHKIEGTVLSSFSDEVRRRS` has measured soluble fraction (log2) not below -0.2. Thanks!
**A:** criterion not met

**Q:** Textbook exercise: given the entry `HMEETLEELGKEYESAFTMYEKLWSYYKKQNYHQVNHKRSERYEILLGFVREYHPEKVEYYRELL` , state whether its soluble fraction (log2) is greater than or equal to -0.2.
**A:** criterion met

**Q:** Is soluble fraction (log2) for `HMRLSESLLDDIPGIGAARKRALLQSFGSVRKLRHADAEEIAAKVPGIGLNFAEKIVEALRKK` at or above -0.2?
**A:** criterion met

**Q:** Test whether the sequence `HMYTTHTQSELNEAARFNGRATYQKGIYYNESKKEHFKVVNGKYQALPNVKQVNGDSWIDKTGITHKG` records soluble fraction (log2) of -0.2 or higher.
**A:** criterion met

**Q:** Does the sequence `HMNTAALSLQRRNEIKKWLLEEKTLTVAALSNRFNVTYETIRRDLEILEKEGFLKKVYGGAALNERV` have recorded soluble fraction (log2) that is -0.2 or more?
**A:** criterion met

**Q:** Determine whether measured soluble fraction (log2) meets or exceeds -0.2 for `HMRGAARRDRAVGERAVSKDTILDATRALLRKGSALEIRAIDIAEESGLSRQTVFQYYPVIRLIFFELSD`
**A:** criterion met

**Q:** Answer whether soluble fraction (log2) of `HMSSYTQEDVRSGILYMAQLKPRNIEEFVSTLAFSKDDIMDNLSFLVDEGFLKFDADTDTYFNPVPL` is greater than or equal to -0.2.
**A:** criterion not met

**Q:** Decide: is the reported value of soluble fraction (log2) for `HMEYKKKIGELLIDGNKKLKAANIDTYILDTQLLLGKVLGKDKLYLITNKDEEVSNFKEREFYSLIEKRI` equal to or greater than -0.2?
**A:** criterion met

**Q:** Does `HMDAAEVEATARAMLRRSALNLLAQREQTAFELKQKLSRRFPEQAALLDEVIERLQEQGLQDDTR` have a reported soluble fraction (log2) of at least -0.2?
**A:** criterion met

**Q:** For this sequence, is measured soluble fraction (log2) -0.2 or higher? `HMEVAVQFIEFKIPENHAWIGKEIREITFPPESILVLIIRDGKKLVPNGKTVLKEGDSLILSGKASD`
**A:** criterion not met

**Q:** I'd appreciate it if you could say whether `HMVVTMEKIVVNDGGIRIDTYLADKLNISRSKVAKMLENNILVNNVKVKPSYKVTNNDIIEVEEYV` has soluble fraction (log2) at least equal to -0.2.
**A:** criterion not met

**Q:** Hi, just wondering whether `HMPVSTLLGDNLRRLRTAKGYTQEAVADAARISVAAYRNYETGRAIPKVNTLLAIARALGVSLNDLVTE` shows soluble fraction (log2) of -0.2 or higher.
**A:** criterion met

**Q:** Determine whether this sequence has soluble fraction (log2) no lower than -0.2: `HMNPLHYKAAHWVREGLFDDLKSFVELETRINSIFEEKDRGDVFEIFIEGYRSFSKWRALVLRLA`
**A:** criterion not met

**Q:** Decide: is the reported value of soluble fraction (log2) for `HMASAKTVAQSGTYKFAKTTAIKSSASDAASTVGTYYKGNTVNYNAKVTTNGQTWLRYTSYSGAQYYVKVS` equal to or greater than -0.2?
**A:** criterion not met

**Q:** Exam item: decide whether the reported soluble fraction (log2) for `HMADIWDLLRSEYKLTETDVRMLTDMLPDELMNDFRSEVLALRDRMNRYKVNNPKSYVVTSLKNFIIQHTP` is at least -0.2.
**A:** criterion not met

* * *

assay.details: soluble fraction after stress (log2 fold change); higher = more stays soluble; pooled small domains, quantitative proteomics
test.conditions: stress: 50 degC
Provide the recorded soluble fraction (log2) for the entries that follow.
Answer field: number only, no words.

**Q:** // soluble fraction (log2) lookup, key: `HMGAARRFEMSEGGSQKFWEVAVEGPALTVRFGKLGTAGTTQTKTLASAEAAAKEADKLVREKTKKGYAP`
**A:** 0.222

**Q:** GET /values?readout=soluble fraction (log2)&item= `HMFYNDLINFDVFRDSRKIGKIENINSRLPQPVFEIMYDSRIVLIPIHEDFIRKIDKVNNIIYLDIPDGLL`
**A:** -1.72

**Q:** Return reported soluble fraction (log2); argument: `HMLPEGIENGDVLTRTDALDYRKWLVTGNQKRIFASTASFYGENFNYSEVKAVSDRVLDAIPDGEPV`
**A:** -0.0574

**Q:** Which soluble fraction (log2) is reported for this sequence? `HMQPDFLDAKASLALLGVRPQTLYAYVSRGAIRSVPQPGTKAHLYSRSDIERVMARAAARAG`
**A:** -1.12

**Q:** Requested read-out: soluble fraction (log2). Entry: `HMLPPHMEVRAIMILDKRPMALMNIEGEGDGLIVSPGYRFGDGRGRVVSITQTKVVVLWAGTSMEL`
**A:** -2.28

**Q:** GET /values?readout=soluble fraction (log2)&item= `HMDQTIFFGQQKAINNLSTDAGLSATELDEYLKKRYKRPLYQLTQAEGAEIIKGFQDGALSRSSILDYTK`
**A:** -0.00165

**Q:** # input sequence: `HMGANAVAAFTARVRTGPSTGYPVRISVPQGRQVRVISGPYGGWYRVSYQGLTGYTYGGLLRQG` ; wanted: its soluble fraction (log2)
**A:** -0.408

**Q:** What value of soluble fraction (log2) has been recorded for this entry: `HMLNDTGAIRAAVEEVLAANEKSVNEYKGGKTQAFQYLIGQSMRALRGKAPAQEVTKLLKELLG`
**A:** -0.263

**Q:** Name the reported soluble fraction (log2) value associated with the sequence `HMSRLLTTRQREVFEVATREGFWDVPRRINLSELAKVLGVAKSTLSSQLQRIESAVFHAFTDEIRRQS`
**A:** -2.16

**Q:** So what does the record say about soluble fraction (log2) for `HMDPLGHVIKKKRLQLGMTLRDLAAKAGVHHATIDRIETDQFKVVDPSTLVKIAEALHLDQLYLLSLN` ?
**A:** -0.0139

**Q:** Record request: soluble fraction (log2) value, item `HMEEITLQEQINFIKDMLLNKEKFHLTDVITKKSKIYVVSLFLALLELIRLEEINFRQTQNFSDIIISRI`
**A:** -0.138

**Q:** Dear colleague, I am looking for the recorded soluble fraction (log2) of the following sequence: `HMGEVQALIPGLVSKLFVVEGESVKIGQKLIILEAMKMENEIASPINGTIKKIYIKSGDKIDKGSIIMEIT`
**A:** -0.336

**Q:** Quick check: soluble fraction (log2) of `HMVLSVRERMGIVLEKVNTETFTDFKELFTVEEGRAGAIVSLLAILQLMKDSLIQLVQNEPNGPIYVKAA` ?
**A:** -0.673

**Q:** For the sequence `HMEPDEYTVRQAFMKFDVGGEGRVPRDKLKALLETLGLELSAQQVRESEEQLDPEGTGFTSYGDFLMWWN` , what soluble fraction (log2) is on record?
**A:** -1.12

**Q:** Can you look up the measured soluble fraction (log2) of `HMDIVENSMPNVVGLELNRAKELMTQLGFTNVRYEPTESSRPENEVVYQSVDKDETLDVSSEIIIQYSSGV` for me?
**A:** -0.0131

**Q:** Reported soluble fraction (log2), sequence `HMDSGINVWASAEGLTITADKDTTVYVYDIYGRTIHTSEVKAGTSDIAINTKGIVIVKANGYTKKII` : ____
**A:** -1

**Q:** What soluble fraction (log2) value was documented for this sequence, `HMSGSKEQQIVILNNILERQLQAFGLQGNREFPMVTLKNIYNSLSKIIENAGLKNVENYFVNPEQGKQM` ?
**A:** -0.256

**Q:** Any idea what its soluble fraction (log2) is? The sequence is `HMGKIILLFSDDDGVFDTALYRVRNYDGHRFAQSLGNAEMKWRHSEDEYFDFVLTSLREDGYDIEEIE`
**A:** -1.22

**Q:** Name the reported soluble fraction (log2) value associated with the sequence `HMLPLIEVPAVTGKYLTKAKSALKDAGLDTGDIKRVEHEEHGENYVLKQDPPAGTKVPFGTTVSLTVVAP`
**A:** 0.35

**Q:** Recorded soluble fraction (log2) for `HMSDLTEVIVKFSGDIQPIRQDLDAQVEILLKGYAIITLSPNKIGRLYSYPQIESIEIPKNLYI` , please?
**A:** -1.26

**Q:** May I ask what soluble fraction (log2) has been recorded for `HMINRMGRLVEALSHMIANTKPGARLPSEPELARQLGVSRATLREAMRTFEAQGMIHRRQGAGTFVVH` ?
**A:** -0.402

**Q:** What value of measured soluble fraction (log2) is listed for `HMPIDNTLLSRITSLGVSTTEAEKLISKHGEEALKANLEVVEERLSKPNLPLLDSPAAYLKTALKNG` ?
**A:** 0.318

**Q:** Fill in the blank: the reported soluble fraction (log2) of `HMKGPAFAKIDLTQLPAGLTSFLNTNAAGFKLDYAVAITKDSVIIEYHVGVTIGTAKKEFHLDPNFQLLP` is ____.
**A:** -0.36

**Q:** Would you kindly share the measured soluble fraction (log2) for `HMEPEWVINTDGSNLNEILAIDEVDSRKTFSNDLQEVYRTFGIEAARQILVQEIDAVIESSGA` ?
**A:** 0.199

**Q:** Any idea what its soluble fraction (log2) is? The sequence is `HMLRKTTDLDAIRSVAKDVIDQNPKAVEDYVGGKESAIGFLLGQVMRATKGTADANTVRELLKEILDS`
**A:** 0.311

**Q:** Look up soluble fraction (log2) for this sequence: `HMAQTSAELIIEYLKRNDGFMELTDKSPADEIYETFGISKKNFKMAVGSLYKNRVIEIGQNGIRLVE`
**A:** -0.216

**Q:** Given `HMPSLILADEPTGNLDSRNSSEVIALLKNASKRYAQTIIMITHNRSIAQSADRVLQVSDGVLTDMG` , state its recorded soluble fraction (log2).
**A:** 0.0494

**Q:** Please report the recorded soluble fraction (log2) for `HMSALTDQQQRVLELVASGLVYKEVAAALSISEPTVKYHMGNILTRLHVKNRAQAIAAARQQGLL` .
**A:** -1.21

**Q:** Look at this sequence and give its reported soluble fraction (log2). `HMELTDSLTENAKKLYSVLTTEPRHIDDLSEEAKLSSADTLAALTELELYSLVALSEGKHYYK`
**A:** 0.00954

**Q:** Value lookup for soluble fraction (log2); key = `HMEEPFRIEKKGDIYYISGKTVERLVAMTDLDNDSAVKRLQRTLKRMGVEDALREHGINPGDTVVIGNYEF`
**A:** -0.0245

**Q:** Value lookup for soluble fraction (log2); key = `HMETLKINTHLGTLNLKKRGKKGTWQINIYFKNIEGDNHYRQSTGTNQLELAKAKAMNMITTEYSNRLAGI`
**A:** -1.69

**Q:** Reported soluble fraction (log2), sequence `HMNIQKYFAGREQFIELLEAVGIRTLEQFASADPSTVLPELHQAKRMLKLQTEIPSAPVFREWVNQALS` : ____
**A:** -0.237

**Q:** Fill in the blank: the reported soluble fraction (log2) of `HMRRSSQQLTLTEVSTIKEMVTSEEYRHVPTGTLALLAQRLRKVFASSSTWYRLVRIYKWRRPRGRIH` is ____.
**A:** 0.549

Attribution: the domain aggregation screens of Martell et al. (2025)
